This collection of values is drawn from ChEMBL document CHEMBL4699647.

measurement_target: Apoptosis regulator Bcl-2 (Homo sapiens)
Sequence (P10415 whole entry): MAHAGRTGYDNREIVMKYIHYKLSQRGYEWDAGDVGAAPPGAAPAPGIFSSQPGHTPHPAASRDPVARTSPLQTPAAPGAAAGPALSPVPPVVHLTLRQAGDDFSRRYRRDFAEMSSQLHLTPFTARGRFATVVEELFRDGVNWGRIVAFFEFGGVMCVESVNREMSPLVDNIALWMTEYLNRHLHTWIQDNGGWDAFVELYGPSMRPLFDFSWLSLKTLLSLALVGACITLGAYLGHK
quantity_measured: log10 Ki (log10 of the value in nM)

{"chem_smiles": "N#CC1=C(NCCC(=O)NCc2ccc(C(=O)O)cc2)c2ccc(Sc3ccc(Br)cc3)c3cccc(c23)C1=O", "log10 Ki": 2.20}
{"chem_smiles": "CCCCNC1=C(C#N)C(=O)c2cccc3c(Sc4ccc(Br)cc4)ccc1c23", "log10 Ki": 2.32}
{"chem_smiles": "N#CC1=C(NCCC(=O)NCc2cccc(C(=O)O)c2)c2ccc(Sc3ccc(Br)cc3)c3cccc(c23)C1=O", "log10 Ki": 3.01}
{"chem_smiles": "N#CC1=C(NCc2ccc(C(=O)O)cc2)c2ccc(Sc3ccc(Br)cc3)c3cccc(c23)C1=O", "log10 Ki": 2.89}
{"chem_smiles": "N#CC1=C(NCCC(=O)NCc2ccccc2C(=O)O)c2ccc(Sc3ccc(Br)cc3)c3cccc(c23)C1=O", "log10 Ki": 3.13}
{"chem_smiles": "CN(C)c1ccc(CNC(=O)CCNC2=C(C#N)C(=O)c3cccc4c(Sc5ccc(Br)cc5)ccc2c34)cc1", "log10 Ki": 3.64}

---

measurement_target: Bcl-2-like protein 1 (Homo sapiens)
Sequence (Q07817 whole entry): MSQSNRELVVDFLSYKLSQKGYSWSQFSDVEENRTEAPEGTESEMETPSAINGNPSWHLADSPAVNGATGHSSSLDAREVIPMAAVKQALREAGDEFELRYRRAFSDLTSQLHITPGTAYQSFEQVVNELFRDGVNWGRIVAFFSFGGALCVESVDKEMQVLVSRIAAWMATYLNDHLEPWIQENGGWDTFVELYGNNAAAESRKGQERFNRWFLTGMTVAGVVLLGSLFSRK
quantity_measured: Ki (nM)

{"chem_smiles": "N#CC1=C(NCCC(=O)NCc2ccc(C(=O)O)cc2)c2ccc(Sc3ccc(Br)cc3)c3cccc(c23)C1=O", "unit_label": "nM", "reported": 810}

---

measurement_target: Induced myeloid leukemia cell differentiation protein Mcl-1 (Homo sapiens)
Sequence (Q07820 whole entry): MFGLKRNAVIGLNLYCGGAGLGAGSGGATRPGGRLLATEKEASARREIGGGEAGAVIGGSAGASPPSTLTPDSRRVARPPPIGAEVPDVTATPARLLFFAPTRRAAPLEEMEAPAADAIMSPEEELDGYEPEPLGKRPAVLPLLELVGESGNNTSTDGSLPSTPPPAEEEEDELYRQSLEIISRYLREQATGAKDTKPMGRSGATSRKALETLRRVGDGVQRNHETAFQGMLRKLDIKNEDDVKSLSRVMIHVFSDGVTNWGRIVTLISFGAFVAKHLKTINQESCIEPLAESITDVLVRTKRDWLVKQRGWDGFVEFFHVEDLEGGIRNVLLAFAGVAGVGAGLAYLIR
protocol_notes: Inhibition of FAM-Bim peptide binding to MCl1 (unknown origin) measured after 30 mins by fluorescence polarization assay
Reported Ki values for a set of compounds
quantity_measured: Ki (nM)

{"chem_smiles": "CCCCNC1=C(C#N)C(=O)c2cccc3c(Sc4ccc(Br)cc4)ccc1c23", "measurement_target": "Induced myeloid leukemia cell differentiation protein Mcl-1 (Homo sapiens)", "quantity_measured": "Ki", "reported": 350}
{"chem_smiles": "N#CC1=C(NCCC(=O)NCc2ccccc2)c2ccc(Sc3ccc(Br)cc3)c3cccc(c23)C1=O", "measurement_target": "Induced myeloid leukemia cell differentiation protein Mcl-1 (Homo sapiens)", "quantity_measured": "Ki", "reported": 560}
{"chem_smiles": "N#CC1=C(C#N)c2ccc(Sc3ccc(Br)cc3)c3cccc(c23)C1=O", "measurement_target": "Induced myeloid leukemia cell differentiation protein Mcl-1 (Homo sapiens)", "quantity_measured": "Ki", "reported": 490}
{"chem_smiles": "N#CC1=C(NCCC(=O)NCc2ccc(C(=O)O)cc2)c2ccc(Sc3ccc(Br)cc3)c3cccc(c23)C1=O", "measurement_target": "Induced myeloid leukemia cell differentiation protein Mcl-1 (Homo sapiens)", "quantity_measured": "Ki", "reported": 320}
